- Test system: CaCo-2 cells
- procedure_summary: Dose-response study of cell viability (MTT assay) on CaCo-2 cells
- Assay type: cell-based, human
- setup_conditions: p<0.05 compared to the other tested doses
metric_name: most effective concentration (cell viability)
Your answer should be a number followed by the unit of measure.

Q: Respond only with most effective concentration (cell viability) recorded for C=C1CC[C@H](O)C/C1=C/C=C1\CCC[C@]2(C)[C@@H]([C@H](C)CCCC(C)C)CC[C@@H]12
Ans: 0.01 µM

Q: Provide one value: measured most effective concentration (cell viability) of CC(C)=CCC/C(C)=C/C=C/C(C)=C/C=C/C(C)=C/C=C/C=C(C)/C=C/C=C(C)/C=C/C=C(\C)CCC=C(C)C
Ans: 0.2 µM

Q: Fill in reported most effective concentration (cell viability) for this entry: Nc1nc(=O)c2nc(CNc3ccc(C(=O)N[C@@H](CCC(=O)O)C(=O)O)cc3)cnc2[nH]1
Ans: 50 µM

Q: Read the entry CC(=O)N[C@@H](CS)C(=O)O and write its reported most effective concentration (cell viability).
Ans: 600 µM
